Data origin: patent US20150105252A1

Test system: barley, winter
assay: Test D preemergence
Type: in vivo, Hordeum vulgare
conditions: Preemergence, 125 g ai/ha; scale 0 to 100
endpoint label: Plant response rating, Barley, Winter
Numbers only.

Worked examples, 3 molecules total:
| molecule | Plant response rating, Barley, Winter |
| --- | --- |
| Cc1cc(C(=O)NCC(F)(F)F)nn1Cc1ccnc(C(F)(F)F)c1 [Compound 74] | 0 |
| CCc1cc(C(=O)NC2CC2)nn1Cc1ccnc(C(F)(F)F)c1 [Compound 76] | 60 |
| O=C(NC1CC1)c1cc(CCF)n(Cc2ccnc(C(F)(F)F)c2)n1 [Compound 176] | 0 |

I'd like to know its Plant response rating, Barley, Winter. The molecule in question is CCc1cc(C(=O)NCC(F)(F)F)nn1Cc1ccnc(SC(F)(F)F)c1 [Compound 214] 55

----------
Tested on: galium
assay: Test C preemergence
Type: in vivo, Galium aparine
conditions: Preemergence, 250 g ai/ha
endpoint label: Plant response rating (scale of 0 to 100), Galium
Give bare numbers.

A selection of reference data follows.
| structure string | readout number |
| --- | --- |
| CCc1cc(C(=O)NOC(C)C)nn1Cc1cccc(OC(F)(F)F)c1 | 98 |
| CCc1cc(C(=O)NOC(C)C)nn1Cc1ccnc(OC(F)F)c1 | 100 |

Give Plant response rating (scale of 0 to 100), Galium for each of the items listed below.
1. CCc1cc(-c2ccc(C(F)(F)F)cc2)nn1Cc1ccnc(C(F)(F)F)c1
2. CCONC(=O)c1cc(CC)n(Cc2ccnc(OC(F)F)c2)n1

1. 100
2. 98

----------
System: velvetleaf
assay: Test A preemergence
Format: in vivo, Abutilon theophrasti
conditions: preemergence, 125 g ai/ha; visual injury, 0 to 100 scale, approx. 10 days
Assign Velvetleaf plant response rating to each entry below.
Numbers only.

Some molecules with recorded Velvetleaf plant response rating:
| structure string | Velvetleaf plant response rating |
| --- | --- |
| Cc1cc(C(=O)NCC(F)(F)F)nn1Cc1cccc(C(F)(F)F)c1 | 0 |
| CCc1cc(C(=O)NCC(F)(F)F)nn1Cc1nc(C(F)(F)F)nn1C | 90 |
| CCCNC(=O)c1cc(CC)n(Cc2ccnc(C(F)(F)F)c2)n1 | 80 |
| CCCCNC(=O)c1cc(C)n(Oc2ccnc(C(F)(F)F)c2)n1 | 0 |

For every listed record, write down its Velvetleaf plant response rating.
1. CCc1cc(C(=O)NC2CC2)nn1Cc1cccc(C(F)(F)F)n1
2. CCc1cc(C(=O)NC(C)C)nn1Cc1cc(C(F)(F)F)nn1CC
3. CCc1cc(C(=O)NOC(C)C)nn1Cc1cccc(OC(F)(F)F)c1
4. Cc1cc(C(=O)Nc2ccc(F)cc2)nn1Oc1ccnc(C(F)(F)F)c1

[0, 10, 40, 0]

----------
System: pigweed
assay: Test C postemergence
Assay type: in vivo, Amaranthus retroflexus
conditions: postemergence, 250 g ai/ha; scale 0 to 100 (0 no effect, 100 complete control)
endpoint label: Plant response rating, Pigweed
Give bare numbers.

// solved cases for Plant response rating, Pigweed follow
| structure string | Plant response rating, Pigweed |
| --- | --- |
| CCOc1cc(C(=O)NCC(F)(F)F)nn1Cc1ccnc(OC(F)F)c1 | 90 |
| CCCc1cc(C(=O)NCC(F)(F)F)nn1Cc1ccnc(OC(F)F)c1 | 85 |
| CCCNC(=O)c1cc(OCC)n(Cc2ccnc(OC(F)F)c2)n1 | 80 |
| CCONC(=O)c1cc(CC)n(Cc2cccc(OC(F)(F)F)c2)n1 | 65 |

Please state, for each entry, its recorded Plant response rating, Pigweed.
1. CCCc1cc(C(=O)NC2CC2)nn1Cc1ccnc(OC(F)F)c1
2. Cc1cc(C(=O)NCC(F)(F)F)nn1Cc1ccnc(C(F)(F)F)c1
3. CCCc1cc(C(=O)NC(C)C)nn1Cc1ccnc(C(F)(F)F)c1
4. CCCNC(=O)c1cc(CC)n(Cc2nc(C(F)(F)F)nn2C)n1

100
80
85
65
